These entries and their values trace back to the supplement of paper PMC11451515.

Form field: cell viability (one value per entry).
- Test system: SEM cells
- assayNotes: cell viability relative to DMSO control; higher = less cytotoxic
- statedConditions: HPLM + 10% dialyzed FBS; 48 h; 0.0211 µM
assayReadout: cell viability (%)

compound=CC(C)NC[C@@H](C(=O)N1CCN(c2ncnc3c2[C@H](C)C[C@H]3O)CC1)c1ccc(Cl)cc1 experimentalsystem="SEM cells" assayreadout="cell viability" observedvalue=89.3
compound=Cc1cn(-c2cc(NC(=O)c3ccc(C)c(Nc4nccc(-c5cccnc5)n4)c3)cc(C(F)(F)F)c2)cn1 experimentalsystem="SEM cells" assayreadout="cell viability" observedvalue=107
compound=C\C1=C(\C=C(C#N)/C(=O)N1)C2=C[N]3C=CN=C3C=C2 experimentalsystem="SEM cells" assayreadout="cell viability" observedvalue=75
compound=CC[C@H](C)[N]1C=C(C)C2=C1C=C(C=C2C(=O)NC\C3=C(C)\C=C(\C)NC3=O)C4=CC=C(N=C4)N5CCNCC5 experimentalsystem="SEM cells" assayreadout="cell viability" observedvalue=117
compound=COC(=O)[C@@H]1[C@H]2C[C@H]3c4[nH]c5ccccc5c4CCN3C[C@@H]2CC[C@@H]1O experimentalsystem="SEM cells" assayreadout="cell viability" observedvalue=110
compound=COc1cc2ncnc(Nc3cc(Br)c(O)c(Br)c3)c2cc1OC experimentalsystem="SEM cells" assayreadout="cell viability" observedvalue=98.4
compound=COc1cc2ncnc(Nc3ccc(F)c(Cl)c3)c2cc1NC(=O)/C=C/CN1CCCCC1 experimentalsystem="SEM cells" assayreadout="cell viability" observedvalue=102
compound=NC/1=N/[C@]2(COC[C@H]2CS1)C3=CC(=CC=C3F)NC(=O)C4=NC=C(F)C=C4 experimentalsystem="SEM cells" assayreadout="cell viability" observedvalue=127
compound=C=CC[C@@H]1/C=C(\C)C[C@H](C)C[C@H](OC)[C@H]2O[C@@](O)(C(=O)C(=O)N3CCCC[C@H]3C(=O)O[C@H](/C(C)=C/[C@@H]3CC[C@@H](O)[C@H](OC)C3)[C@H](C)[C@@H](O)CC1=O)[C@H](C)C[C@@H]2OC experimentalsystem="SEM cells" assayreadout="cell viability" observedvalue=123
compound=COCCCN1CCC(NC(=O)c2cc(Cl)c(N)c3c2OCC3)CC1 experimentalsystem="SEM cells" assayreadout="cell viability" observedvalue=116
compound=N/C1=N/C(=O)C/2=C(NC[C@@H](CNC3=CC=C(C=C3)C(=O)N[C@@H](CCC([O-])=O)C([O-])=O)N2C=O)\N1 experimentalsystem="SEM cells" assayreadout="cell viability" observedvalue=115
compound="CCC(C)(Oc1ccc(C2(c3ccc(OC(C)(CC)C(=O)O)cc3)CCCCC2)cc1)C(=O)O (stereo unspecified)" experimentalsystem="SEM cells" assayreadout="cell viability" observedvalue=103
compound=CN(C)[C@H]\1[C@@H]2C[C@H]3C(=C(O)\[C@]2(O)C(=O)\C(=C1O)C(N)=O)/C(=O)C4=C(O)C=CC=C4[C@@]3(C)O experimentalsystem="SEM cells" assayreadout="cell viability" observedvalue=101
compound=CN1C[C@H]2c3ccccc3Oc3ccc(Cl)cc3[C@@H]2C1 experimentalsystem="SEM cells" assayreadout="cell viability" observedvalue=76.3
compound=COc1cc2c(cc1OC)CC(=O)N(CCCN(C)C[C@H]1Cc3cc(OC)c(OC)cc31)CC2.Cl experimentalsystem="SEM cells" assayreadout="cell viability" observedvalue=115
compound=O=C(c1ccc(Nc2nccc(-c3cc4ccccc4s3)n2)cc1)N1CCC(N2CCCC2)CC1 experimentalsystem="SEM cells" assayreadout="cell viability" observedvalue=110
